Can you tell me Emax for the items I'm about to list?
Target: human MC4-R (Homo sapiens)
Construct: expressed in transfected cells; host or cells: HEK293 T-REx (tetracycline-regulated, Invitrogen); cell line from Palatin Technologies with license from the University of Michigan
Sequence (P32245 whole entry): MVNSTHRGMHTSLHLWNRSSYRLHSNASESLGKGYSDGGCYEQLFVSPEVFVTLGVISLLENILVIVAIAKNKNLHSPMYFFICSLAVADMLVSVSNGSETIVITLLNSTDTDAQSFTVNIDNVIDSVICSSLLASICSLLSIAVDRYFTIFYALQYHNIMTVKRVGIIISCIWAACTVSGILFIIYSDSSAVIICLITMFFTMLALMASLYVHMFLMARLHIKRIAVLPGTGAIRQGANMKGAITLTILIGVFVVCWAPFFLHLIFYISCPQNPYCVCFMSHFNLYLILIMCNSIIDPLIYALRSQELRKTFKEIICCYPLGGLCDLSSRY
Experiment: cAMP functional assay in HEK-293 T-REx cells expressing human MC4-R, induced with doxycycline 0.1 ng/mL (low density)
Format: cell-based
Conditions: HEK293-T-REx; maximal cAMP stimulation, NDP-α-MSH = 100%; doxycycline 0.1 ng/mL; averages of all comparable assays; read-out: Emax
Procedure: A HEK293 cell line transfected with human MC4-R (from Palatin Technologies, US, with license from the University of Michigan) was used. The human MC4-R was introduced to HEK293 by using the T-REx™ System, Invitrogen. The T-REx™ System employs a tetracycline-regulated mammalian expression system that uses regulatory elements from the E. coli Tn10-encoded tetracycline (Tet) resistance operon. […] Cells were then counted and volume was adjusted to 5×10^4 cells per 200 μL. […]
Bridge positions count the residues as written; N and C are the ends. Square brackets hold non-standard residues; d marks the D form. Peptide text beside a SMILES is read from it. Orn = NCCC[C@H](N)C(=O)O
Give bare numbers, in %.

Examples from the recorded data:
CC(=O)N[C@@H](CCCNC(=N)N)C(=O)N[C@H]1CCCNC(=O)CC[C@@H](C(=O)O)NC(=O)[C@H](Cc2c[nH]c3ccccc23)NC(=O)[C@H](CCCNC(=N)N)NC(=O)[C@@H](Cc2ccccc2)NC(=O)[C@H](Cc2c[nH]cn2)NC1=O [No. 37] (Ac-R[Orn]H[dF]RWE-OH; lactam 2-7) ... 88
CC(=O)N[C@@H](CCCNC(=N)N)C(=O)N[C@H]1CCC(=O)NCCC[C@@H](C(=O)O)NC(=O)[C@H](Cc2c[nH]c3ccccc23)NC(=O)[C@H](CCCNC(=N)N)NC(=O)[C@@H](Cc2ccccc2)NC(=O)[C@H](CCC(N)=O)NC1=O ... 81
CC(=O)N[C@@H](CCCNC(=N)N)C(=O)N[C@H]1CCC(=O)NCCC[C@@H](C(=O)O)NC(=O)[C@H](Cc2c[nH]c3ccccc23)NC(=O)[C@H](CCCNC(=N)N)NC(=O)[C@@H](Cc2ccccc2)NC(=O)[C@H](CCCNC(=N)N)NC1=O ... 82

Can you share its Emax? I mean this molecule: CCCC[C@H](NC(C)=O)C(=O)N[C@H]1CCCNC(=O)CC[C@@H](C(N)=O)NC(=O)[C@H](Cc2c[nH]c3ccccc23)NC(=O)[C@H](CCCNC(=N)N)NC(=O)[C@@H](Cc2ccccc2)NC(=O)[C@H](Cc2c[nH]cn2)NC1=O
85
